Biological target: AchR (Homo sapiens, UniProt P02708)
Sequence (P02708 21-457): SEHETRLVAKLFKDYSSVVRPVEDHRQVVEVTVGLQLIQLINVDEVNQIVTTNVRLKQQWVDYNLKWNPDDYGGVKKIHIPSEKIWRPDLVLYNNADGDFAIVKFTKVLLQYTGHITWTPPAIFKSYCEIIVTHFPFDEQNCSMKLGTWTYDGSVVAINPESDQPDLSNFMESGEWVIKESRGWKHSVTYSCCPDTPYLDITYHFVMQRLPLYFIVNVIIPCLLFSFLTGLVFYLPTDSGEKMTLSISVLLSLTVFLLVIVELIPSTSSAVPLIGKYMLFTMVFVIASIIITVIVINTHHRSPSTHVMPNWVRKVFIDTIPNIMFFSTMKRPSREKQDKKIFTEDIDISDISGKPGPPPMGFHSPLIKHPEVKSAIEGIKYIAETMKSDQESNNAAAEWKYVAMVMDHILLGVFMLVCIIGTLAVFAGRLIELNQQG
Test: ELISA of screened peptide phages on AchR versus streptavidin (OD450)
Format: binding
Settings: ELISA of selected 11-mer (L2) peptide phages on AchR, absorbance at 450 nm; Spep-2 positive control
Rule: measured OD below 0.7 gets t; anything equal to or greater than 0.7 gets f.

# example entries with known answers
L2-37 (TLWKVRKAYSR; AchR binding peptide) [Peptide L2-37] | t
L2-104 (PEDRQRKTWFK; AchR binding peptide) [Peptide L2-104] | t
L2-54 (HHWRFKREMPR; AchR binding peptide) [Peptide L2-54] | t
L2-188 (CLWRLRKDNGR; AchR binding peptide) [Peptide L2-188] | f
L2-24 (SFWRERKNGFR; AchR binding peptide) [Peptide L2-24] | f

Does the reported OD of L2-52 (LPSRPKKPVPK; AchR binding peptide) [Peptide L2-52] stay below 0.7?
t

Does the reported OD of L2-121 (HETKPKKDGLR; AchR binding peptide) [Peptide L2-121] stay below 0.7?
t

* * *

The entries below are paired with their reported OD.
Target: AchR (Homo sapiens)
Experiment: ELISA of screened peptide phages on AchR versus streptavidin (OD450)
Assay type: binding
Conditions: ELISA of selected 14-mer (L3) peptide phages on AchR, absorbance at 450 nm; Spep-2 positive control
# print the numeric value only

L3-57 (EEIKQKKLHLRVWF; AchR binding peptide) [Peptide L3-57] | 0.674
L3-150 (YLSRTKRWLARYVE; AchR binding peptide) [Peptide L3-150] | 0.518
L3-115 (NDPRLRKHNHRCCT; AchR binding peptide) [Peptide L3-115] | 0.685
L3-140 (EHCKWKKMFDKEGE; AchR binding peptide) [Peptide L3-140] | 0.607
L3-127 (WVDRSRKFEDRNCL; AchR binding peptide) [Peptide L3-127] | 0.608

What OD appears in the records for this substance with AchR (Homo sapiens)? L3-49 (VAFKTRRRVQRQSG; AchR binding peptide) [Peptide L3-49]
0.629

What OD appears in the records for this substance with AchR (Homo sapiens)? L3-157 (CMLRWKRWHMRFNP; AchR binding peptide) [Peptide L3-157]
0.731

What OD appears in the records for this substance with AchR (Homo sapiens)? L3-120 (FLYKAKKALMRDSL; AchR binding peptide) [Peptide L3-120]
0.887

What OD appears in the records for this substance with AchR (Homo sapiens)? L3-63 (CPWRNRKAMIKGII; AchR binding peptide) [Peptide L3-63]
0.794

* * *

The entries below are paired with their reported OD.
Biological target: AchR (Homo sapiens)
Test: ELISA of screened peptide phages on AchR versus streptavidin (OD450)
Type: binding
Conditions: ELISA of selected 11-mer (L2) peptide phages on AchR, absorbance at 450 nm; Spep-2 positive control
# print the numeric value only

// below: answered substances
L2-68 (GPDKSRRNLHR; AchR binding peptide) [Peptide L2-68] | 0.721
L2-158 (MMTKYKKTCCK; AchR binding peptide) [Peptide L2-158] | 0.73
L2-82 (PDTRWKRVLFK; AchR binding peptide) [Peptide L2-82] | 0.693
L2-5 (TQQRLKRVMEK; AchR binding peptide) [Peptide L2-5] | 0.752

Continue with the next substance.
Param item = L2-154 (NPFKYKKICPK; AchR binding peptide) [Peptide L2-154] ; retrieve measured OD.
0.736

* * *

Biological target: Acetylcholine receptor proteins (AchR) (Homo sapiens)
Sequence (P02708 21-457): as above
Type: binding
Conditions: SPR, peptides 3 μM
parameter-measured: AchR binding affinity (resonance units: Ru) among representative peptides

L3-37: 14-mer optimized peptide of the L3 library (Table 12, not shown here) (SNVKRKRGRCKPYR; AchR binding peptide) [Peptide L3-37] | highest binding affinity
L3-27: 14-mer optimized peptide of the L3 library (Table 12, not shown here) (RARKKRKSLLRRQV; AchR binding peptide) [Peptide L3-27] | highest binding affinity
L3-28: 14-mer optimized peptide of the L3 library (Table 12, not shown here) (PNGKVRKRIRRRYF; AchR binding peptide) [Peptide L3-28] | highest binding affinity

* * *

Target: AchR (Homo sapiens)
Experiment: ELISA of screened peptide phages on AchR versus streptavidin (OD450)
Format: binding
Conditions: ELISA of selected 14-mer (L3) peptide phages on AchR, absorbance at 450 nm; Spep-2 positive control
parameter-measured: OD
# print the numeric value only

L3-84 (HTFKLRKLCQKLFE; AchR binding peptide) [Peptide L3-84] | 0.739
L3-23 (QYHKVRKLWFRVEP; AchR binding peptide) [Peptide L3-23] | 0.799
L3-152 (VVIKCRKWTHKMDH; AchR binding peptide) [Peptide L3-152] | 0.818
L3-9 (NCNRFRRTIVRHCH; AchR binding peptide) [Peptide L3-9] | 0.725
L3-200 (HMCRWRRQINKGVS; AchR binding peptide) [Peptide L3-200] | 0.733
L3-89 (EWCKNKRWHSREYP; AchR binding peptide) [Peptide L3-89] | 0.624
L3-136 (PFDRARRDLHRIMM; AchR binding peptide) [Peptide L3-136] | 0.512
L3-40 (ASPKGRRPTFRPQH; AchR binding peptide) [Peptide L3-40] | 0.733
L3-154 (ENIKSRKYFVKLTW; AchR binding peptide) [Peptide L3-154] | 0.766
L3-38 (TVVKSRKCSVRYNW; AchR binding peptide) [Peptide L3-38] | 0.669

Param item = L3-194 (WAPRDRRNMGRDPA; AchR binding peptide) [Peptide L3-194] ; retrieve measured OD.
0.743

Param item = L3-22 (HSLKTRKSAFKSNT; AchR binding peptide) [Peptide L3-22] ; retrieve measured OD.
0.83

Param item = L3-2 (SFYKERKCQFRSGL; AchR binding peptide) [Peptide L3-2] ; retrieve measured OD.
0.841

Param item = L3-124 (GAQRARKPVLRAVG; AchR binding peptide) [Peptide L3-124] ; retrieve measured OD.
0.515

Param item = L3-141 (FFYRLRRCLTRWWV; AchR binding peptide) [Peptide L3-141] ; retrieve measured OD.
0.504

Param item = L3-30 (WAHKCKKPGQRIPP; AchR binding peptide) [Peptide L3-30] ; retrieve measured OD.
0.771

Param item = L3-56 (QISKLKRPSYRGDD; AchR binding peptide) [Peptide L3-56] ; retrieve measured OD.
0.703

Param item = L3-151 (HTLKPKRLYPRPSE; AchR binding peptide) [Peptide L3-151] ; retrieve measured OD.
0.624

* * *

The entries below are paired with their reported OD.
Biological target: AchR (Homo sapiens, UniProt P02708)
Assay: ELISA of screened peptide phages on AchR versus streptavidin (OD450)
Type: binding
Settings: phage ELISA, absorbance at 450 nm, 5 μg/ml AchR; 4th and 5th round biopanning phages
# print the numeric value only

// below: answered sequences
RVRRSWIR [Peptide L1-72] | 0.616
KNKRTPVK [Peptide L1-86] | 0.551

Param item = KIRRVTNK [Peptide L1-162] ; retrieve measured OD.
0.668

Param item = KTKRVDPK [Peptide L1-102] ; retrieve measured OD.
0.507

Param item = KWRKRRIK [Peptide L1-46] ; retrieve measured OD.
0.637

Param item = RWRRSVIK [Peptide L1-106] ; retrieve measured OD.
0.417

* * *

Target: AchR (Homo sapiens, UniProt P02708)
Test: ELISA of screened peptide phages on AchR versus streptavidin (OD450)
Type: binding
Conditions: ELISA of selected 14-mer (L3) peptide phages on AchR, absorbance at 450 nm; Spep-2 positive control
The entries below are paired with their reported OD.
# print the numeric value only

L3-90 (LWNRYKKLLMRIFW; AchR binding peptide) [Peptide L3-90] | 0.818
L3-102 (IMVKIRRCPARPLC; AchR binding peptide) [Peptide L3-102] | 0.581
L3-139 (FHHRHKRIATKHPA; AchR binding peptide) [Peptide L3-139] | 0.49

Param item = L3-125 (MQEKCRRCVFKGNI; AchR binding peptide) [Peptide L3-125] ; retrieve measured OD.
0.629

Param item = L3-55 (HFPRARRFEHRCML; AchR binding peptide) [Peptide L3-55] ; retrieve measured OD.
0.706

* * *

The entries below are paired with their reported OD.
Molecular target: AchR (Homo sapiens, UniProt P02708)
Experiment: ELISA of screened peptide phages on AchR versus streptavidin (OD450)
Assay type: binding
Conditions: ELISA of selected 11-mer (L2) peptide phages on AchR, absorbance at 450 nm; Spep-2 positive control
# print the numeric value only

// below: answered substances
L2-143 (AIIKFRKVQWK; AchR binding peptide) [Peptide L2-143] | 0.401
L2-77 (VADRQKKTAPK; AchR binding peptide) [Peptide L2-77] | 0.733
L2-25 (RLERPRRELTK; AchR binding peptide) [Peptide L2-25] | 0.842

Param item = L2-173 (SWAKARKLVHR; AchR binding peptide) [Peptide L2-173] ; retrieve measured OD.
0.705

Param item = L2-177 (LNSKPRRVEFK; AchR binding peptide) [Peptide L2-177] ; retrieve measured OD.
0.768

Param item = L2-194 (HLEKHRRCEFK; AchR binding peptide) [Peptide L2-194] ; retrieve measured OD.
0.693

Param item = L2-45 (WIYRGRKDVAK; AchR binding peptide) [Peptide L2-45] ; retrieve measured OD.
0.584

Param item = L2-157 (NFYKCRKLQCK; AchR binding peptide) [Peptide L2-157] ; retrieve measured OD.
0.731

Param item = L2-19 (GWNRAKREESK; AchR binding peptide) [Peptide L2-19] ; retrieve measured OD.
0.727

Param item = L2-59 (FGVKYRRVICR; AchR binding peptide) [Peptide L2-59] ; retrieve measured OD.
0.69

Param item = L2-64 (SPFRAKRQDVR; AchR binding peptide) [Peptide L2-64] ; retrieve measured OD.
0.683

Param item = L2-96 (ISDKAKRQHFK; AchR binding peptide) [Peptide L2-96] ; retrieve measured OD.
0.708

Param item = L2-99 (CSLRARKEEWR; AchR binding peptide) [Peptide L2-99] ; retrieve measured OD.
0.52

Param item = L2-35 (NFTKLRKPGPR; AchR binding peptide) [Peptide L2-35] ; retrieve measured OD.
0.683

Param item = L2-53 (PAWRCKRCQPK; AchR binding peptide) [Peptide L2-53] ; retrieve measured OD.
0.614

Param item = L2-179 (GIAKSKRNAGR; AchR binding peptide) [Peptide L2-179] ; retrieve measured OD.
0.716

Param item = L2-95 (IMDKRRKPGCR; AchR binding peptide) [Peptide L2-95] ; retrieve measured OD.
0.522
